molecular target: HDAC1 (Homo sapiens, UniProt Q13547); assay: HDAC biochemical activity measurement (fluorescent substrate deacetylation); conditions: HDAC1; 37° C. 30 minutes; read-out: IC50 HDAC1
Sequence (Q13547 whole entry, species assumed): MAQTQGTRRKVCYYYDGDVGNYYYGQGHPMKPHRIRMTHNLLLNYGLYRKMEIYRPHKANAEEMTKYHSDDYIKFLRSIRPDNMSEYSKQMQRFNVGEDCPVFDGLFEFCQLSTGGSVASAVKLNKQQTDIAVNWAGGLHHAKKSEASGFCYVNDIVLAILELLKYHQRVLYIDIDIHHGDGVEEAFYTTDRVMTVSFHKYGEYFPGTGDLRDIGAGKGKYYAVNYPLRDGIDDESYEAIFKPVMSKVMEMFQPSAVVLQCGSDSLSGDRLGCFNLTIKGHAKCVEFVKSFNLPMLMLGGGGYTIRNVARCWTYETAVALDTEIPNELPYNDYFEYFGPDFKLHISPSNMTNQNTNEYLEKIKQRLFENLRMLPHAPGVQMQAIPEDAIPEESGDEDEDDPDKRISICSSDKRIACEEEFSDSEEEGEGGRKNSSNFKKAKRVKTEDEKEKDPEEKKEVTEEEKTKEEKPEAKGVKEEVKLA
metric name: IC50 (nM)

>>> reading("C/C=C1\\NC(=O)c2nc(ccc2F)CNC(=O)C[C@@H](/C=C/CCSC(C)=O)OC(=O)[C@H](CCCCN)NC1=O [Compound 72]")
64

[P] C/C=C1\NC(=O)c2nc(ccc2SCCC)CNC(=O)C[C@@H](/C=C/CCSC(=O)CCCCCCC)OC(=O)[C@H](CC)NC1=O [Compound 174]
[Q] C/C=C1\NC(=O)c2cc(F)cc(n2)CCNC(=O)C[C@@H](/C=C/CCSC(C)=O)OC(=O)[C@H](C(C)C)NC1=O [Compound 104]
Task: Between the entries labeled P and Q , whose measured IC50 is lower? When you have decided, please share the label of that item.
Output: Q
(Q: 51 nM, P: 84 nM)

---

System: H1975 (non-small cell lung adenocarcinoma)
Assay: MTT cancer cell growth inhibition
Format: cell-based
Settings: MTT, 72 hours incubation, H1975 cells; read-out: GI50 H1975
Text: MTT assay principle is yellow MTT can penetrate membrane into the cell, succinic dehydrogenase of the mitochondria in living cells can make exogenous MTT reduction of insoluble in water of blue-violet acicular formazan for crystallization and deposition in the cell, crystallization can be dissolved dimethyl sulfoxide (DMSO) solution, detected its absorbance at 490 nm/570 nm wavelength by enzyme-linked immunosorbent assay, which can reflect the number of cells. […] e) 570 nm readings. […]
metric name: GI50 (nM)

>>> reading("C/C=C1\\NC(=O)c2ccc(SC)c(n2)CNC(=O)C[C@@H](/C=C/CCSC(C)=O)OC(=O)[C@H](C)NC1=O [Compound 215]")
37
>>> reading("C=C1NC(=O)c2cc(F)cc(n2)CNC(=O)C[C@@H](/C=C/CCS)OC(=O)[C@H](C(C)C)NC1=O [Compound 133]")
31
>>> reading("C/C=C1\\NC(=O)c2nc(ccc2F)CNC(=O)C[C@@H](/C=C/CCSC(C)=O)OC(=O)[C@H](C(C)C)NC1=O [Example 48]")
28

[a] C/C=C1\NC(=O)c2cc(SC)cc(n2)CNC(=O)C[C@@H](/C=C/CCSC(C)=O)OC(=O)[C@H](C)NC1=O [Compound 214]
[b] C/C=C1\NC(=O)c2ncc(SC)c(n2)CNC(=O)C[C@@H](/C=C/CCSC(C)=O)OC(=O)[C@H](C(C)C)NC1=O [Compound 217]
Task: Which value of GI50 is greater, the one for a or the one for b ? When you have decided, please share the label of that item.
Output: a
(a: 63 nM, b: 43 nM)

[A] C/C=C1\NC(=O)c2cc(SC)cc(n2)CNC(=O)C[C@@H](/C=C/CCSC(C)=O)OC(=O)[C@H](C(C)C)NC1=O [Compound 224]
[B] C/C=C1\NC(=O)c2ccc(SC)c(n2)CNC(=O)C[C@@H](/C=C/CCSC(C)=O)OC(=O)[C@H](C(C)C)NC1=O [Compound 209]
Task: Which value of GI50 is greater, the one for A or the one for B ? When you have decided, please share the label of that item.
Output: A
(A: 96 nM, B: 17 nM)

---

biological target: HDAC1 (Homo sapiens, UniProt Q13547); test: HDAC biochemical activity measurement (fluorescent substrate deacetylation);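 note: fluorogenic acetyl-lysine substrate (20 µM) deacetylated by HDAC1, then developer releases fluorophore read at 360 nm excitation and 460 nm emission, inhibitor incubated 30 min at 37 °C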; details: HDAC1; 37° C. 30 minutes; read-out: IC50 HDAC1
metric name: IC50 (nM)

>>> reading("C/C=C1\\NC(=O)c2cccc(n2)CNC(=O)C[C@@H](/C=C/CCSC(=O)CCCCCCC)OC(=O)[C@H](CSCC)NC1=O")
19

[a] C/C=C1\NC(=O)c2cc(F)cc(n2)CNC(=O)C[C@@H](/C=C/CCSC(=O)CCCCCCC)OC(=O)[C@H](CC)NC1=O
[b] C=C1NC(=O)c2cccc(n2)CNC(=O)C[C@@H](/C=C/CCSC(=O)CCCCCCC)OC(=O)[C@H](C(C)C)NC1=O
Task: Between the entries labeled a and b , whose measured IC50 is lower? When you have decided, please share the label of that item.
Output: a
(a: 13 nM, b: 92 nM)
